target: WT Spike (SARS-CoV2)
readout_type: Response
Respond using a number only.

| binder | Response |
| --- | --- |
| Ab_18 scFv-Fc (scFv, V domains shown) VH: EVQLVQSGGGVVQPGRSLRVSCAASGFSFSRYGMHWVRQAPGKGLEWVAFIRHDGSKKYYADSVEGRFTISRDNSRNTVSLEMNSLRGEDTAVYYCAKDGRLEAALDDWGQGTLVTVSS VL: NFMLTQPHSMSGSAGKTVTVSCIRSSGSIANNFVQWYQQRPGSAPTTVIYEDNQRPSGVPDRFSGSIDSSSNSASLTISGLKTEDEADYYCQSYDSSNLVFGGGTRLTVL | 0.216 |
| Ab_13 scFv-Fc (scFv, V domains shown) VH: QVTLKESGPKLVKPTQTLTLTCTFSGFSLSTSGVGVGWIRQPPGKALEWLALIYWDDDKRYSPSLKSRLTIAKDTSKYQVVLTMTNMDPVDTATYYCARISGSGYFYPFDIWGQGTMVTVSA VL: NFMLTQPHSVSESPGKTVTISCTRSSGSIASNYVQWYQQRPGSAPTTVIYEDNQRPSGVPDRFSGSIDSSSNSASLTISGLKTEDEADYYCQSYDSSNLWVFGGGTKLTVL | 0.0732 |

-- ask Param item = Ab_14 scFv-Fc (scFv, V domains shown) VH: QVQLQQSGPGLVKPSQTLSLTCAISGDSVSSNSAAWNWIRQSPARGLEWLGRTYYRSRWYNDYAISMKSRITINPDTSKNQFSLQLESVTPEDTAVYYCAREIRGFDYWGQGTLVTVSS VL: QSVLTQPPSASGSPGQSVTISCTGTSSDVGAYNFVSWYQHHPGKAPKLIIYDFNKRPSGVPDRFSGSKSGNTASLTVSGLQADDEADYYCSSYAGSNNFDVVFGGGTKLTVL ; retrieve measured Response.
-- reply 0.313
